# credit: the supplement of paper PMC4862054

Tested on: HCC1143
EXPERIMENTAL_DETAILS: normalised response (% of control), CellTiter-Glo; higher = more viable cells (100 = DMSO, 0 = benzethonium chloride kill control)
MEASUREMENT_CONTEXT: incubation time: 72 h
READOUT_KIND: normalised response (%)
Just the number please, in %, no unit attached.

CC1(C)CCC(c2ccc(Cl)cc2)=C(CN2CCN(c3ccc(C(=O)NS(=O)(=O)c4ccc(N[C@H](CCN5CCOCC5)CSc5ccccc5)c(S(=O)(=O)C(F)(F)F)c4)cc3)CC2)C1 [Navitoclax] (1000 nM)    82.9

QUERY: Lab note: need normalised response with HCC1143 for entry O=C(O)CNC(=O)c1c(O)c2ccccc2n(Cc2ccccc2)c1=O [IOX-2] (5 nM) , please look it up.
RESULT: 94.8

QUERY: Lab note: need normalised response with HCC1143 for entry CC(C)C[C@H](NC(=O)[C@@H](COC(C)(C)C)NC(=O)[C@H](Cc1ccc(O)cc1)NC(=O)[C@H](CO)NC(=O)[C@H](Cc1c[nH]c2ccccc12)NC(=O)[C@H](Cc1cnc[nH]1)NC(=O)[C@@H]1CCC(=O)N1)C(=O)N[C@@H](CCCNC(=N)N)C(=O)N1CCC[C@H]1C(=O)NNC(N)=O [Goserelin] (10 nM) , please look it up.
RESULT: 99.2

QUERY: Lab note: need normalised response with HCC1143 for entry C/C(=C\c1csc(C)n1)[C@@H]1C[C@@H]2O[C@]2(C)CCC[C@H](C)[C@H](O)[C@@H](C)C(=O)C(C)(C)[C@@H](O)CC(=O)N1 [Ixabepilone] (1 nM) , please look it up.
RESULT: 98.1

QUERY: Lab note: need normalised response with HCC1143 for entry CCNC(=O)CCC/C=C\C[C@@H]1[C@@H](/C=C/[C@@H](O)CCc2ccccc2)[C@H](O)C[C@@H]1O [Bimatoprost] (550 nM) , please look it up.
RESULT: 92.5
